tested on: KALS-1; test: cells; format: functional, cell-based, Homo sapiens; settings: Homo sapiens, KALS-1;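 also: growth inhibition of KALS-1 cells, determined with a cell viability assay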
Description: SANGER: Inhibition of human KALS-1 cell growth in a cell viability assay.
METRIC: IC50 (nM)

* COc1cccc2c1C(=O)c1c(O)c3c(c(O)c1C2=O)C[C@@](O)(C(=O)CO)C[C@@H]3O[C@H]1C[C@H](N)[C@H](O)[C@H](C)O1 [DOXORUBICIN] | 29.3
* N[C@@H](CSC(c1ccccc1)(c1ccccc1)c1ccccc1)C(=O)O [S-TRITYL-L-CYSTEINE] | 1320
* OCCCNc1cc(-c2ccnc(Nc3cccc(Cl)c3)n2)ccn1 | 35.3
* Cc1cc([N+](=O)[O-])ccc1NS(=O)(=O)c1cc(Cl)ccc1Cl | 8540

====

system: LS-513; assay: cells; type: functional, cell-based, Homo sapiens; details: Homo sapiens, LS-513
Description: SANGER: Inhibition of human LS-513 cell growth in a cell viability assay.
Reported IC50 is given for each of the following compounds.
METRIC: IC50

- C#Cc1cccc(Nc2ncnc3cc(OCCOC)c(OCCOC)cc23)c1: > 2000 nM
- CC(C)CCN1c2nc(Nc3cc(F)c(O)c(F)c3)ncc2N(C)C(=O)C1C (centres undefined): > 5000 nM
- CC1(C)CNc2cc(NC(=O)c3cccnc3NCc3ccncc3)ccc21: > 2000 nM
- CC(C)c1ccccc1Cc1cc(C(=O)Nc2ccc(S(=O)(=O)c3ccccc3C(C)(C)C)cc2)c(O)c(O)c1O: 607 nM

====

system: D-423MG; test: cells; format: functional, cell-based, Homo sapiens; details: Homo sapiens, D-423MG
Description: SANGER: Inhibition of human D-423MG cell growth in a cell viability assay.
pIC50: −log10 of the molar value.
METRIC: pIC50

• CS(=O)(=O)c1ccc(C(=O)Nc2ccc(Cl)c(-c3ccccn3)c2)c(Cl)c1 [VISMODEGIB] = < 5.00
• Cn1cnc2c(F)c(Nc3ccc(Br)cc3Cl)c(C(=O)NOCCO)cc21 [SELUMETINIB] = < 5.40
• CN(C)C(=N)NC(=N)N [METFORMIN] = 2.49
• CC1(C)CNc2cc(NC(=O)c3cccnc3NCc3ccncc3)ccc21 [MOTESANIB] = < 5.70

====

tested on: RPMI 8402; experiment: SANGER: Inhibition of human RPMI-8402 cell growth in a cell viability assay.; assay type: functional, cell-based; conditions: Homo sapiens, RPMI 8402; read-out: IC50
Known IC50 of a selection of molecules
METRIC: IC50 (µM)

• OCCCNc1cc(-c2ccnc(Nc3cccc(Cl)c3)n2)ccn1 = 0.0709
• Cc1cc([N+](=O)[O-])ccc1NS(=O)(=O)c1cc(Cl)ccc1Cl = 6.85
• CCN(CC)CCNC(=O)c1c(C)[nH]c(/C=C2\C(=O)Nc3ccc(F)cc32)c1C = 2.34
• COc1cc(N2CCN(C)CC2)ccc1Nc1ncc2c(n1)N(C)c1ccccc1C(=O)N2C = 4.5
• N#Cc1c(O)c2c(-c3ccc(-c4ccccc4O)cc3)csc2[nH]c1=O = 0.442
• Nc1ccn([C@@H]2O[C@H](CO)[C@@H](O)C2(F)F)c(=O)n1 = 0.0459

====

// reported IC50 for each item listed
tested on: DMS-153; experiment: cells; assay type: functional, cell-based, Homo sapiens; conditions: Homo sapiens, DMS-153
Description: SANGER: Inhibition of human DMS-153 cell growth in a cell viability assay.
METRIC: IC50

* Cc1cc([N+](=O)[O-])ccc1NS(=O)(=O)c1cc(Cl)ccc1Cl | 29.1 µM
* O=C(O)c1ccc(-c2c[nH]c3ncc(-c4ccccc4)cc23)cc1C1CCCC1 | > 16 µM
* COc1cc2ncn(-c3cc(OCc4ccccc4C(F)(F)F)c(C(N)=O)s3)c2cc1OC [GW843682X] | > 0.256 µM
* CC[C@H](CO)Nc1nc(NCc2ccccc2)c2ncn(C(C)C)c2n1 | > 16 µM

====

tested on: RT-112; assay: cells; assay type: functional, cell-based, Homo sapiens; details: Homo sapiens, RT-112
Description: SANGER: Inhibition of human RT-112 cell growth in a cell viability assay.
pIC50: −log10 of the molar value.
METRIC: pIC50

* CO[C@H]1C[C@@H]2CC[C@@H](C)[C@@](O)(O2)C(=O)C(=O)N2CCCC[C@H]2C(=O)O[C@H]([C@H](C)C[C@@H]2CC[C@@H](OC(=O)C(C)(CO)CO)[C@H](OC)C2)CC(=O)[C@H](C)/C=C(\C)[C@@H](O)[C@@H](OC)C(=O)[C@H](C)C[C@H](C)/C=C/C=C/C=C/1C | 7.33
* CC1(C)CNc2cc(NC(=O)c3cccnc3NCc3ccncc3)ccc21 | 5.80
* COc1cccc2c1C(=O)c1c(O)c3c(c(O)c1C2=O)C[C@@](O)(C(=O)CO)C[C@@H]3O[C@H]1C[C@H](N)[C@H](O)[C@H](C)O1 | 7.48

====

test system: TGW; experiment: cells; type: functional, cell-based, Homo sapiens; conditions: Homo sapiens, TGW
Description: SANGER: Inhibition of human TGW cell growth in a cell viability assay.
Counter-ions that a name gives are not always drawn.
METRIC: IC50

* COC1=CC(c2cc3ccccc3[nH]2)=N/C1=C\c1[nH]c(C)cc1C [OBATOCLAX MESYLATE] | 17.4 nM
* Cc1cc([N+](=O)[O-])ccc1NS(=O)(=O)c1cc(Cl)ccc1Cl | > 32000 nM
* Cn1cnc2c(F)c(Nc3ccc(Br)cc3Cl)c(C(=O)NOCCO)cc21 | > 4000 nM
* C=C(c1ccc(C(=O)O)cc1)c1cc2c(cc1C)C(C)(C)CCC2(C)C | > 8000 nM
* COc1cccc2c1C(=O)c1c(O)c3c(c(O)c1C2=O)C[C@@](O)(C(=O)CO)C[C@@H]3O[C@H]1C[C@H](N)[C@H](O)[C@H](C)O1 | > 1020 nM
* COc1cc(-c2nn([C@H]3CC[C@H](N4CCN(C(C)=O)CC4)CC3)c3ncnc(N)c23)ccc1NC(=O)c1cc2ccccc2n1C | > 5120 nM
* COc1cc2ncn(-c3cc(OCc4ccccc4C(F)(F)F)c(C(N)=O)s3)c2cc1OC [GW843682X] | 34.7 nM
* CC(C)CCN1c2nc(Nc3cc(F)c(O)c(F)c3)ncc2N(C)C(=O)C1C (stereo not drawn) | 1050 nM

====

tested on: TE-11; experiment: cells; type: functional, cell-based, Homo sapiens; conditions: te-11;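 also: growth inhibition of human TE-11 cells, read out by a cell viability assay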
Description: SANGER: Inhibition of human TE-11 cell growth in a cell viability assay.
pIC50: −log10 of the molar value.
METRIC: pIC50

- CISPLATIN: 4.79

====

Here, each record is paired with measured pIC50 data.
tested on: NCI-H292; assay: cells; assay type: functional, cell-based, Homo sapiens; conditions: Homo sapiens, NCI-H292;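 also: growth inhibition of NCI-H292 cells, read out with a cell viability assay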
Description: SANGER: Inhibition of human NCI-H292 cell growth in a cell viability assay.
pIC50: −log10 of the molar value.
METRIC: pIC50

• COc1cccc2c1C(=O)c1c(O)c3c(c(O)c1C2=O)C[C@@](O)(C(=O)CO)C[C@@H]3O[C@H]1C[C@H](N)[C@H](O)[C@H](C)O1 = 7.36
• CC(C)c1ccccc1Cc1cc(C(=O)Nc2ccc(S(=O)(=O)c3ccccc3C(C)(C)C)cc2)c(O)c(O)c1O = 6.44

====

Parameter: IC50. Scope: all listed entries.
test system: SK-UT-1; test: cells; assay type: functional, cell-based, Homo sapiens; settings: Homo sapiens, SK-UT-1;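 also: growth inhibition of SK-UT-1 cells, measured by a cell viability assay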
Description: SANGER: Inhibition of human SK-UT-1 cell growth in a cell viability assay.
METRIC: IC50

- COc1cc2c(Nc3ccc(NC(=O)c4ccccc4)cc3)ncnc2cc1OCCCN1CCOCC1: 1820 nM
- CCN(CC)CCCCNc1ncc2cc(-c3cc(OC)cc(OC)c3)c(NC(=O)NC(C)(C)C)nc2n1: > 2000 nM
- Oc1ccc2ccccc2c1SSc1c(O)ccc2ccccc12: > 32000 nM
- Cc1ccc(-c2c(C(=O)CCl)n(CCCO)c3ncnc(N)c23)cc1: > 4000 nM
- CCN(CC)CCNC(=O)c1c(C)[nH]c(/C=C2\C(=O)Nc3ccc(F)cc32)c1C: > 8000 nM
- CCC/C=C/C=C/C(=O)O[C@H]1/C(=C/C(=O)OC)C[C@H]2C[C@H]([C@@H](C)O)OC(=O)C[C@H](O)C[C@@H]3C[C@H](OC(C)=O)C(C)(C)[C@](O)(C[C@@H]4C/C(=C/C(=O)OC)C[C@H](/C=C/C(C)(C)[C@]1(O)O2)O4)O3: > 8 nM
- OCCCNc1cc(-c2ccnc(Nc3cccc(Cl)c3)n2)ccn1: 157 nM
- N[C@@H](CSC(c1ccccc1)(c1ccccc1)c1ccccc1)C(=O)O: 626 nM

====

tested on: 697; assay: cells; format: functional, cell-based, Homo sapiens
Description: SANGER: Inhibition of human 697 cell growth in a cell viability assay.
METRIC: IC50 (µM)

* CISPLATIN | 1.89

====

system: SU-DHL-1; test: SANGER: Inhibition of human SU-DHL-1 cell growth in a cell viability assay.; type: functional, cell-based; conditions: Homo sapiens, SU-DHL-1
pIC50: −log10 of the molar value.
pIC50 reference
METRIC: pIC50

* COc1cc(N2CCN(C)CC2)ccc1Nc1ncc2c(n1)N(C)c1ccccc1C(=O)N2C | < 5.10
* N#Cc1c(O)c2c(-c3ccc(-c4ccccc4O)cc3)csc2[nH]c1=O | < 5.99
* Cc1ccc(-c2c(C(=O)CCl)n(CCCO)c3ncnc(N)c23)cc1 | < 5.40
* CC(=O)O[C@H]1C(=O)[C@@]2(C)[C@H]([C@H](OC(=O)c3ccccc3)[C@]3(O)C[C@H](OC(=O)[C@H](O)[C@@H](NC(=O)c4ccccc4)c4ccccc4)C(C)=C1C3(C)C)[C@]1(OC(C)=O)CO[C@@H]1C[C@@H]2O [PACLITAXEL] | < 6.99
* COc1cc2ncn(-c3cc(OCc4ccccc4S(C)(=O)=O)c(C#N)s3)c2cc1OC [GSK-319347A] | < 5.30
* Nc1ccn([C@@H]2O[C@H](CO)[C@@H](O)C2(F)F)c(=O)n1 [GEMCITABINE] | 7.20
* COc1cc(-c2nn([C@H]3CC[C@H](N4CCN(C(C)=O)CC4)CC3)c3ncnc(N)c23)ccc1NC(=O)c1cc2ccccc2n1C | < 5.29
* N[C@@H](CSC(c1ccccc1)(c1ccccc1)c1ccccc1)C(=O)O [S-TRITYL-L-CYSTEINE] | < 5.29
